B1: SAT2 (parent)
chain: LTEAEGWHFFCFQGEATRKLAGK

Variants of: B1
assay.remarks: protein stability index of a GFP-peptide fusion (GPS, HEK-293T) (PSI 1-6); higher = more stable;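 also: lentivirally expressed fusions sorted by FACS into six bins by GFP to DsRed ratio, PSI derived from sequencing read proportions per bin multiplied by bin number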
test.context: c terminus: native
We begin with a simple list: items and their reported protein stability index.

changes | protein stability index
Q13M | 1.07
L20R | 3.66
G22E | 2.54
A21Y | 2
G6Q | 2.6
K23Q | 2.81
W7E | 4.9
E5P | 1.86
K19F | 1.94
L20K | 3.3
R18C | 1.92
A16S | 2.12
E3G | 1.78
A4P | 3.18
K23P | 2.41
R18H | 2.3
G14K | 2.23
T2Q | 2.48
L1N | 3.57
L1H | 1.48
F9C | 3.12
G22V | 3.23
